test: NCI Yeast Anticancer Drug Screen. Data for the mlh1 rad18 strain (AID 175); conditions: S. cerevisiae mlh1 rad18 strain growth inhibition; at 50.0 µM; stronger effect = higher value
About 79,000 compounds went through this panel and 15% of them were active in at least one assay; those are over-represented in the sample as a whole.
Measured growth inhibition, listed per entry.
Value expressed in %; do not type the unit.

Look over these answered cases.
COC(=O)C1=C(C(=O)OC)C2C=CC1C1C(Cl)=C(Cl)C21 (stereo not given)	-34
N#CCCc1ccnc2ccccc12	-14.8
COc1cc(NS(=O)(=O)c2ccc(C)cc2)c2c(c1N)C(=O)c1ccccc1C2=O	-1.05
CC(=O)C1CC[C@@]2(C)C(CC[C@H]3[C@@H]4CCC[C@H]([C@H](C)O)[C@@]4(C)CC[C@@H]32)C1 (stereo not given in full)	-7.5
CN=NNc1ccc(C#N)cc1	5.5
CCc1nc(N)nc(N)c1-c1ccc(NC(C)c2ccccc2)c([N+](=O)[O-])c1 (stereo not given)	-7.6
O=C1NC(=S)SC1=C1CCCCC1	28.2
CCOC(=O)C(CCC#N)(CCC#N)C(C)=O	15.1

stdin: Need growth inhibition, item NC(CSCc1ccccc1)P(=O)(O)O (stereo not given)
stdout: -1.55

stdin: Looking for the measured growth inhibition of Nc1nc(N)c2nc(-c3ccc(N(CCO)CCO)cc3)c(N)nc2n1 , can you help?
stdout: -15.9

stdin: # lookup: growth inhibition of c1cc(OCCOc2cccc3ocnc23)c2ncoc2c1
stdout: 0.65

stdin: Could you share which growth inhibition value was measured for COc1cc(OC)c(C(C)=O)c(C(C)=O)c1 ?
stdout: -2.55

stdin: Form field: reported growth inhibition of COc1ccc(N2C(=O)C3c4[nH]c5ccccc5c4C4CC(C)(C)CC(C)(C)C4C3C2=O)cc1 (stereo not given)
stdout: 8.65

----------
test: NCI Yeast Anticancer Drug Screen. Data for the bub3 strain (AID 167); details: S. cerevisiae bub3 mutant strain, at 50.0 µM, stronger effect = higher value
The panel holds about 79,000 compounds, 15% with a hit somewhere; the sample as a whole holds those more often.
Assay Metric: growth inhibition (%)
// note: answer is a bare numeric in %

Observe how each entry below is paired with its result.
CCOC(=O)C(=O)N=Nc1nc2c(O)c3ccccc3c(O)c2s1	89.2
CCOC(=O)C(=O)C(C(=O)c1ccccn1)c1nc2n(c1O)C(=N)N=N2 (stereo not given)	-5.35

stdin: Recorded growth inhibition for O=C(O)c1c(O)cc(=O)oc1-c1ccccc1Cl , please?
stdout: -18.9

stdin: Consider the molecule Cc1c(Cl)cccc1NC(=O)C(=O)C1C(=O)CC(C)(C)CC1=O and give its measured growth inhibition.
stdout: 15.2

stdin: Fill in the blank: the reported growth inhibition of Cc1cccc(NC(=O)Oc2ccc(Nc3ccccc3)cc2)c1 is ____.
stdout: 62

----------
Parameter: growth inhibition. Scope: all listed entries.
assay: NCI Yeast Anticancer Drug Screen. Data for the sgs1 mgt1 strain (AID 161);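 further: 0% = growth of cultures given vehicle only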; conditions: S. cerevisiae sgs1 mgt1 strain, at 50.0 µM, stronger effect = higher value
About 79,000 compounds went through this panel and 15% of them were active in at least one assay; those are over-represented in the sample as a whole.
Give your result in % as a bare value.

// known answers, use as guide
O=C1C=CC(=O)N1CCCCN1C(=O)C=CC1=O	-17.9
COc1cccc(N2C(=O)C3c4[nH]c5ccc(C)cc5c4C4CCC(C(C)(C)C)CC4C3C2=O)c1 (stereo not given)	13

stdin: Could you tell me which growth inhibition is on file for c1ccc(Oc2ccccc2-c2ccccc2)cc1 ?
stdout: -0.7

stdin: Data request, read-out growth inhibition, for CC1(O)CC2C(CC1SCCO)C2(C)C (stereo not given)
stdout: -42.1

stdin: Endpoint output: growth inhibition of COc1ccc(C2=C(OC(C)=O)c3cccn3-c3ccccc3S2)cc1 . Value?
stdout: -28.8

stdin: Which measured growth inhibition value corresponds to c1ccc(SSc2ccc3ccccc3c2)cc1 ?
stdout: 32.6

stdin: Record request: growth inhibition value, item CCOc1ccc(/C=C/c2ccc(OCC)cc2)cc1
stdout: -8.9

stdin: growth inhibition lookup needed for O=C1NC2C1C1c3ccccc3C2C12CC2 (stereo not given) , thanks.
stdout: -13.6

stdin: growth inhibition for CC(N)C(=O)NC(C(=O)NC1C(O)OC(CO)C(O)C1O)C(C)C (stereo not given) ?
stdout: -17.4

stdin: I am curious: what growth inhibition value has been reported for CC#CCC1CCC(OCC)=CC1=O (stereo not given) ?
stdout: 12.2

stdin: # lookup: growth inhibition of O=C1C2CSCN2C(=O)C2CSCN12 (stereo not given)
stdout: 5.7

stdin: Give the measured growth inhibition of O=[N+]([O-])c1ccc2c3c(ccc([N+](=O)[O-])c13)CC2 .
stdout: -6.75

stdin: Return reported growth inhibition; argument: O=C(O)c1c(Cl)ccc(F)c1Cl
stdout: 4.5

stdin: # lookup: growth inhibition of O=C(O)CCNc1cccs1
stdout: -26.5

stdin: Form field: reported growth inhibition of ClC/C(=N\N1CCCCCC1)c1ccccc1
stdout: -4.75

stdin: Name the recorded growth inhibition for Nc1[nH]c(=O)nc2nc(I)[nH]c12 .
stdout: 22.7

stdin: Given COc1ccc2cc(-c3ccc(OC)c(OC)c3)c(=O)oc2c1 , state its recorded growth inhibition.
stdout: -7.65
